Tested on: human non-small-cell lung cancer cell lines H460
ASSAY_EXPLANATION: SRB growth inhibition of lung cancer cells
Format: cell-based
EXPERIMENTAL_CONTEXT: Homo sapiens, NCI-H460, 48 h, derivative dissolved in water; 48 hours; SRB; read-out: IC50 of H460 in water
Could you please report measured IC50 for the items listed next?
Output spec: scalar in µM, unitless text.

Requested read-out: IC50. Entry: "Cc1ccc(S(=O)(=O)NCCN(C)C)cc1.Cl"
1750

Check "Cc1ccc(S(=O)(=O)N2CCC(N)CC2)cc1.Cl" too.
691

Check "Cc1ccc(S(=O)(=O)NC2CCNCC2)cc1.Cl" too.
1090

Check "CCOC(=O)NS(=O)(=O)c1ccc(C)cc1" too.
4960

Check "Cc1ccc(S(=O)(=O)N2CCC(CN)CC2)cc1.Cl" too.
651

----------
ASSAY_EXPLANATION: first dissolution test in DMSO or water
EXPERIMENTAL_CONTEXT: water, thermodynamic from solid
Method: Each of the powder of p-TSA derivatives was duplicated, placed in each 15 mL centrifuge tube, followed by adding 200 μL DMSO or 200 μL water and shaking for 10 to 20 seconds for dissolution observation. If the powder was not dissolved, additional DMSO or water was added, and then the mixture was shaken. The tube was left to stand for 10 minutes for observation if the powder was still not dissolved after adding 1 mL DMSO or 1 mL water. […]
Could you please report measured solubility for the items listed next?

Requested read-out: solubility. Entry: "Cc1ccc(S(=O)(=O)N2CC(O)C2)cc1"
< 50 mg/mL

Check "Cc1ccc(S(=O)(=O)NC2COC2)cc1" too.
< 50 mg/mL

Check "Cc1ccc(S(=O)(=O)N2CCC(CN)CC2)cc1.Cl" too.
152 mg/mL

Check "Cc1ccc(S(=O)(=O)N2CC(C(=O)NO)C2)cc1" too.
< 50 mg/mL

Check Cc1ccc(S(=O)(=O)NC2CCN(Cc3ccccc3)CC2)cc1.Cl [PTSA052i] too.
< 50 mg/mL

----------
Test system: human liver cancer cell lines Hep3B
ASSAY_EXPLANATION: SRB growth inhibition of liver cancer cells
Type: cell-based
EXPERIMENTAL_CONTEXT: Homo sapiens, Hep3B, 48 h, derivative dissolved in water; 48 hours; SRB; read-out: IC50 of Hep3B in water
Procedure: After letting to stand for 10 minutes at room temperature, the supernatant of each well was removed, and each well was washed with 200 μL H2O once. […] Each of the plates was then placed in the laminar flow cabinet for 1 hour for air dry. 50 μL 0.4% sulforhodamine B (SRB) dye was added into each well of the 96-well plate. […] Each of the plates was then placed in the laminar flow cabinet for 40 minutes to 1 hour for air dry. […] Absorption of each well under 515 nm was read. […]
Could you please report measured IC50 for the items listed next?

Give recorded IC50 with human liver cancer cell lines Hep3B for the following molecule: Cc1ccc(S(=O)(=O)NC2CCNCC2)cc1.Cl [PTSA052]
954 µM

Check CC(=O)NS(=O)(=O)c1ccc(C)cc1 [PTSA002] too.
> 6030 µM

Check Cc1ccc(S(=O)(=O)NCCO)cc1 [PTSA020] too.
> 1000 µM

Check Cc1ccc(S(=O)(=O)NC(=O)NS(=O)(=O)c2ccc(C)cc2)cc1 [PTSA018] too.
> 3000 µM

Check Cc1ccc(S(=O)(=O)NC(CO)(CO)CO)cc1 [PTSA031] too.
> 1000 µM

Check Cc1ccc(S(=O)(=O)N2CC(N)C2)cc1.Cl [PTSA074] too.
2130 µM

Check Cc1ccc(S(=O)(=O)N2CCC(CN)CC2)cc1.Cl [PTSA055] too.
610 µM

Check Cc1ccc(S(=O)(=O)N2CCC(N)CC2)cc1.Cl [PTSA053] too.
770 µM

Check Cc1ccc(S(=O)(=O)NCCN(C)C)cc1.Cl [PTSA051] too.
1440 µM

Check Cc1ccc(S(=O)(=O)NCCS(=O)(=O)O)cc1 [PTSA048] too.
> 3000 µM

Check Cc1ccc(S(=O)(=O)N2CCCC2C(=O)O)cc1 (stereo not drawn) [PTSA047] too.
> 3000 µM

Check Cc1ccc(S(=O)(=O)N2CC(CN)C2)cc1.Cl [PTSA068] too.
1300 µM
